system: Mycobacterium tuberculosis Erdman (autoluminescent); test: GRinf, maximum normalised growth rate inhibition (three-drug combination) (unitless (-1 to 1)); higher = less effect (negative = killing); conditions: in vitro model: valerate; time point: terminal (~4-5 doublings, model-specific)
Quantity kind: GRinf
Numbers only.

Here is how some compounds turned out for GRinf.
INSERT INTO assay_data (compound, quantity_kind, measured_value) VALUES
  ('COc1nc2ccc(Br)cc2cc1[C@@H](c1ccccc1)[C@@](O)(CCN(C)C)c1cccc2ccccc12 [bedaquiline] + CC(C)/N=c1\cc2n(-c3ccc(Cl)cc3)c3ccccc3nc-2cc1Nc1ccc(Cl)cc1 [clofazimine] + CO[C@H]1/C=C/O[C@@]2(C)Oc3c(C)c(O)c4c(O)c(c(/C=N/N5CCN(C6CCCC6)CC5)c(O)c4c3C2=O)NC(=O)/C(C)=C\C=C\[C@H](C)[C@H](O)[C@@H](C)[C@@H](O)[C@@H](C)[C@H](OC(C)=O)[C@@H]1C [rifapentine]', 'GRinf', -0.0333),
  ('COc1nc2ccc(Br)cc2cc1[C@@H](c1ccccc1)[C@@](O)(CCN(C)C)c1cccc2ccccc12 [bedaquiline] + NC(=O)c1cnccn1 [pyrazinamide] + CO[C@H]1/C=C/O[C@@]2(C)Oc3c(C)c(O)c4c(O)c(c(/C=N/N5CCN(C)CC5)c(O)c4c3C2=O)NC(=O)/C(C)=C\C=C\[C@H](C)[C@H](O)[C@@H](C)[C@@H](O)[C@@H](C)[C@H](OC(C)=O)[C@@H]1C [rifampicin]', 'GRinf', 0.00447),
  ('CC(C)/N=c1\cc2n(-c3ccc(Cl)cc3)c3ccccc3nc-2cc1Nc1ccc(Cl)cc1 [clofazimine] + NC(=O)c1cnccn1 [pyrazinamide] + CO[C@H]1/C=C/O[C@@]2(C)Oc3c(C)c(O)c4c(O)c(c(/C=N/N5CCN(C)CC5)c(O)c4c3C2=O)NC(=O)/C(C)=C\C=C\[C@H](C)[C@H](O)[C@@H](C)[C@@H](O)[C@@H](C)[C@H](OC(C)=O)[C@@H]1C [rifampicin]', 'GRinf', 0.165);

Batch: GRinf for all items listed.
1. CC[C@@H](CO)NCCN[C@@H](CC)CO [ethambutol] + COc1c(N2C[C@@H]3CCCN[C@@H]3C2)c(F)cc2c(=O)c(C(=O)O)cn(C3CC3)c12 [moxifloxacin] + NC(=O)c1cnccn1 [pyrazinamide]
2. CC(C)/N=c1\cc2n(-c3ccc(Cl)cc3)c3ccccc3nc-2cc1Nc1ccc(Cl)cc1 [clofazimine] + COc1c(N2C[C@@H]3CCCN[C@@H]3C2)c(F)cc2c(=O)c(C(=O)O)cn(C3CC3)c12 [moxifloxacin] + CO[C@H]1/C=C/O[C@@]2(C)Oc3c(C)c(O)c4c(O)c(c(/C=N/N5CCN(C)CC5)c(O)c4c3C2=O)NC(=O)/C(C)=C\C=C\[C@H](C)[C@H](O)[C@@H](C)[C@@H](O)[C@@H](C)[C@H](OC(C)=O)[C@@H]1C [rifampicin]
3. NNC(=O)c1ccncc1 [isoniazid] + COc1c(N2C[C@@H]3CCCN[C@@H]3C2)c(F)cc2c(=O)c(C(=O)O)cn(C3CC3)c12 [moxifloxacin] + O=[N+]([O-])c1cn2c(n1)OC[C@@H](OCc1ccc(OC(F)(F)F)cc1)C2 [pretomanid]

Solution:
[-0.037, 0.0195, -0.0412]

Batch: GRinf for all items listed.
1. NNC(=O)c1ccncc1 [isoniazid] + COc1c(N2C[C@@H]3CCCN[C@@H]3C2)c(F)cc2c(=O)c(C(=O)O)cn(C3CC3)c12 [moxifloxacin] + CO[C@H]1/C=C/O[C@@]2(C)Oc3c(C)c(O)c4c(O)c(c(/C=N/N5CCN(C)CC5)c(O)c4c3C2=O)NC(=O)/C(C)=C\C=C\[C@H](C)[C@H](O)[C@@H](C)[C@@H](O)[C@@H](C)[C@H](OC(C)=O)[C@@H]1C [rifampicin]
2. CC(C)/N=c1\cc2n(-c3ccc(Cl)cc3)c3ccccc3nc-2cc1Nc1ccc(Cl)cc1 [clofazimine] + NNC(=O)c1ccncc1 [isoniazid] + CO[C@H]1/C=C/O[C@@]2(C)Oc3c(C)c(O)c4c(O)c(c(/C=N/N5CCN(C6CCCC6)CC5)c(O)c4c3C2=O)NC(=O)/C(C)=C\C=C\[C@H](C)[C@H](O)[C@@H](C)[C@@H](O)[C@@H](C)[C@H](OC(C)=O)[C@@H]1C [rifapentine]
3. NNC(=O)c1ccncc1 [isoniazid] + COc1c(N2C[C@@H]3CCCN[C@@H]3C2)c(F)cc2c(=O)c(C(=O)O)cn(C3CC3)c12 [moxifloxacin] + NC(=O)c1cnccn1 [pyrazinamide]
4. COc1nc2ccc(Br)cc2cc1[C@@H](c1ccccc1)[C@@](O)(CCN(C)C)c1cccc2ccccc12 [bedaquiline] + CC[C@@H](CO)NCCN[C@@H](CC)CO [ethambutol] + CC(=O)NC[C@H]1CN(c2ccc(N3CCOCC3)c(F)c2)C(=O)O1 [linezolid]
5. NNC(=O)c1ccncc1 [isoniazid] + CO[C@H]1/C=C/O[C@@]2(C)Oc3c(C)c(O)c4c(O)c(c(/C=N/N5CCN(C6CCCC6)CC5)c(O)c4c3C2=O)NC(=O)/C(C)=C\C=C\[C@H](C)[C@H](O)[C@@H](C)[C@@H](O)[C@@H](C)[C@H](OC(C)=O)[C@@H]1C [rifapentine] + CO[C@H]1/C=C/O[C@@]2(C)Oc3c(C)c(O)c4c(O)c(c(/C=N/N5CCN(C)CC5)c(O)c4c3C2=O)NC(=O)/C(C)=C\C=C\[C@H](C)[C@H](O)[C@@H](C)[C@@H](O)[C@@H](C)[C@H](OC(C)=O)[C@@H]1C [rifampicin]

Solution:
[0.0382, 0.0296, 0.0159, -0.121, 0.00295]
